system: BT-549 breast; assay: NCI tumour cell line growth inhibition, 48 h; in the data active = GI50 below about 0.43 µM; inactive = the rest
Lab note: assign the record to one of y (active), n (inactive)

Here are 8 compounds together with their reported answers.
>  <compound>
OCc1ccc(N(Cc2ccc(F)cc2)CC2CC2)cc1Cl

>  <class name>
n

$$$$
>  <compound>
O=C(Nc1cccc(Cl)c1)Nc1nccs1

>  <class name>
n

$$$$
>  <compound>
O=C(N/N=C/c1c(Cl)cccc1Cl)c1cccnc1Nc1cccc(C(F)(F)F)c1

>  <class name>
n

$$$$
>  <compound>
N#CC1=C(N)Oc2c(ccc3ccccc23)C1c1cccs1 (stereo unspecified)

>  <class name>
y

$$$$
>  <compound>
ClCCn1cnc2c(SCc3ccccc3Cl)ncnc21

>  <class name>
n

$$$$
>  <compound>
C(=C1c2ccccc2-c2ccccc21)c1ccncc1

>  <class name>
n

$$$$
>  <compound>
COc1cc(-c2csc(NC(=O)Nc3ccc(Cl)c(C(F)(F)F)c3)n2)cc(OC)c1OC

>  <class name>
n

$$$$
>  <compound>
COc1ccc2c(c1)NC(=O)CN2c1nc(NC2CC2)nc2ccccc12

>  <class name>
y

$$$$

**Query** Answer briefly: the call reported for "C=C1C(=O)O[C@H]2[C@H]1CC/C(COC(=O)/C=C\C(=O)NCc1ccc(Cn3c(=O)sn(CCCI)c3=O)cc1)=C\CC[C@@]1(C)O[C@@H]21" in this assay.
**Result** n

**Query** Next record, please: "O=[N+]([O-])c1ccc2c(c1)C(=NO)c1cc([N+](=O)[O-])ccc1-2"
**Result** n

**Query** Now try "CC(C)OC(=O)c1cc(NS(=O)(=O)c2ccc3ccccc3c2)cc(C(=O)OC(C)C)c1" .
**Result** n

**Query** Ok, now "O=C(CCCCN1CCOCC1)Nc1ccc(Cn2nnc3c2C(=O)c2nnn(Cc4ccc(NC(=O)CCCCN5CCOCC5)cc4)c2C3=O)cc1"
**Result** n

**Query** Can you handle "Cc1nn(CCO)c(C)c1N=[N+]([O-])c1c(C)nn(CCO)c1C" next?
**Result** n

**Query** Quick one: "O=Cc1cn(Cc2ccc(Cl)cc2)c2ccccc12"
**Result** n

**Query** Further, for Nc1ccc(C(=O)NN2C(=O)[C@H](Cl)C2c2ccc(Cl)cc2)cc1 (stereo partly specified) ?
**Result** n

**Query** How about this compound: "CCOC(=O)c1nnn(-c2no[n+]([O-])c2-c2ccc(OC)cc2)c1COc1cccc2cccnc12"
**Result** n
